Values from the supplement of paper PMC3334620

// reported PBM E-score per item
Target: Sko1 (UniProt Q02100)
Sequence: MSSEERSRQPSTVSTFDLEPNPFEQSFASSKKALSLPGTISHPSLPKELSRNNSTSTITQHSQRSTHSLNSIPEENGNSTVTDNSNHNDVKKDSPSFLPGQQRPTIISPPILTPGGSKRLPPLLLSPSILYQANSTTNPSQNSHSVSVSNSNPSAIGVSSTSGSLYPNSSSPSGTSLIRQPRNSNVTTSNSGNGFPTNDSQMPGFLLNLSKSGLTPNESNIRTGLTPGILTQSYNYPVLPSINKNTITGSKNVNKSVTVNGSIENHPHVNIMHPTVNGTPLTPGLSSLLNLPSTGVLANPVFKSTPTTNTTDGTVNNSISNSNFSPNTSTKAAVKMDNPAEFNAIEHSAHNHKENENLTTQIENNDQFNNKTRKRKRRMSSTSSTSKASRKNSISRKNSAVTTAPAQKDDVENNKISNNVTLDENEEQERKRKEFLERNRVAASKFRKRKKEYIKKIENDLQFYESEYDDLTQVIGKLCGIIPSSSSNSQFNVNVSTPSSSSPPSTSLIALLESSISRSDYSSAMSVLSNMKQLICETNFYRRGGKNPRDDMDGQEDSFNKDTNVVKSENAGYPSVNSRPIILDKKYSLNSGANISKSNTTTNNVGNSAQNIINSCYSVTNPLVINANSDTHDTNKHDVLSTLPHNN
Assay: PBM E-score (8-mer binding enrichment) (E-score (-0.5 to 0.5)); higher = stronger / more preferred TF binding
Conditions: protein concentration: 200 nM; construct: GST-full length
Over roughly 33,000 sequences, “E-score (-0.5 to 0.5)” has its median near -0.032; the highest 2% begin near 0.36. The full list was thinned out, with the highest values kept by preference.

{"RESIDUE_CODES": "GCAACCCC", "PBM E-score": -0.249}
{"RESIDUE_CODES": "TAGTTCAA", "PBM E-score": 0.0959}
{"RESIDUE_CODES": "ACCACGTG", "PBM E-score": 0.362}
{"RESIDUE_CODES": "ACGAGCAG", "PBM E-score": -0.0309}
{"RESIDUE_CODES": "CACCTTCG", "PBM E-score": -0.136}
{"RESIDUE_CODES": "GTCAACCA", "PBM E-score": 0.0809}
{"RESIDUE_CODES": "CGCCGTGC", "PBM E-score": -0.189}
{"RESIDUE_CODES": "AAAGTCTT", "PBM E-score": 0.0148}
{"RESIDUE_CODES": "CAAACCAG", "PBM E-score": -0.071}
{"RESIDUE_CODES": "GCCGCTCC", "PBM E-score": -0.396}
{"RESIDUE_CODES": "CATTTTCC", "PBM E-score": 0.122}
{"RESIDUE_CODES": "ACCACGAA", "PBM E-score": 0.131}
{"RESIDUE_CODES": "AGAAACTG", "PBM E-score": 0.0191}
{"RESIDUE_CODES": "GCATCGCA", "PBM E-score": -0.35}
{"RESIDUE_CODES": "GGTGGCAA", "PBM E-score": -0.169}
{"RESIDUE_CODES": "GAGACCGC", "PBM E-score": -0.32}
{"RESIDUE_CODES": "GTGTCCCA", "PBM E-score": -0.0921}
{"RESIDUE_CODES": "AGAGCTGG", "PBM E-score": -0.228}
{"RESIDUE_CODES": "GGCAGATA", "PBM E-score": -0.0846}
{"RESIDUE_CODES": "ACGTTCGG", "PBM E-score": 0.0529}
{"RESIDUE_CODES": "ACCACGAC", "PBM E-score": 0.128}
{"RESIDUE_CODES": "ACCACGTA", "PBM E-score": 0.441}
{"RESIDUE_CODES": "TGATTCAA", "PBM E-score": 0.144}
{"RESIDUE_CODES": "CGTTCTAA", "PBM E-score": 0.131}
{"RESIDUE_CODES": "TCCCGACA", "PBM E-score": -0.139}
{"RESIDUE_CODES": "GGTCACTA", "PBM E-score": 0.0129}
{"RESIDUE_CODES": "ACAATAGC", "PBM E-score": -0.0393}
{"RESIDUE_CODES": "ACTCGAAA", "PBM E-score": 0.0248}
{"RESIDUE_CODES": "CTCGGCGA", "PBM E-score": -0.0899}
{"RESIDUE_CODES": "GCAGTCAA", "PBM E-score": -0.262}
